# Test system: Trypanosoma cruzi
# METHOD SUMMARY: microbe, parasite or virus in culture
# Format: functional, organism-based, Tulahuen C4 (LacZ)
# PARTICULARS: Trypanosoma cruzi, Tulahuen C4 (LacZ), 96 h
# Description: DNDI: Chagas in Vitro, 96 hour
Just a reminder that ties go to NOT MET: only IC50 strictly below 30 µM counts as MET.

COMPOUND | TARGET UNDER TEST | CATEGORY LABEL
C[C@@H]1[C@H](O)[C@@H](C)/C=C/C=C/C=C/C=C/C=C/C=C/C=C/[C@H](O[C@@H]2O[C@H](O)[C@@H](O)[C@H](N)[C@@H]2O)C[C@@H]2O[C@](O)(C[C@@H](O)C[C@@H](O)[C@H](O)CC[C@@H](O)C[C@@H](O)CC(=O)O[C@H]1C)C[C@H](O)[C@H]2C(=O)O | Trypanosoma cruzi | NOT MET
Cc1c(O)cccc1C(=O)N[C@@H](CSc1ccccc1)[C@H](O)CN1C[C@H]2CCCC[C@H]2C[C@H]1C(=O)NC(C)(C)C | Trypanosoma cruzi | MET
COc1ccc2[nH]c([S+]([O-])Cc3ncc(C)c(OC)c3C)nc2c1 (configuration not stated) | Trypanosoma cruzi | NOT MET
Cn1c([N+](=O)[O-])cnc1N1CCN(S(C)(=O)=O)C1=O | Trypanosoma cruzi | MET
Cc1c(C)c2c(c(C)c1O)CCC(C)(COc1ccc(CC3SC(=O)NC3=O)cc1)O2 (configuration not stated) | Trypanosoma cruzi | NOT MET
CCc1nc(N)nc(N)c1-c1ccc(Cl)cc1 | Trypanosoma cruzi | MET

---

# Test system: Trypanosoma cruzi
# METHOD SUMMARY: microbe, parasite or virus in culture
# Format: functional, organism-based, Tulahuen C4 (LacZ)
# PARTICULARS: Trypanosoma cruzi, Tulahuen C4 (LacZ), 96 h
pIC50: −log10 of the molar value.
Threshold check on pIC50: at or above 5 gives 1.0, strictly below gives 0.0.

MOLECULE | CATEGORY LABEL
O=C(Nc1ccc([N+](=O)[O-])cc1Cl)c1cc(Cl)ccc1O [NICLOSAMIDE] | 1.0
COC(=O)N[C@H](C(=O)N[C@@H](Cc1ccccc1)[C@@H](O)CN(Cc1ccc(-c2ccccn2)cc1)NC(=O)[C@@H](NC(=O)OC)C(C)(C)C)C(C)(C)C | 0.0
CCN(CC)CCCC(C)Nc1ccnc2cc(Cl)ccc12 (stereo not given) | 0.0
COC1=CC(=O)C[C@@H](C)[C@]12Oc1c(Cl)c(OC)cc(OC)c1C2=O | 0.0

---

# System: Plasmodium falciparum
# METHOD SUMMARY: microbe, parasite or virus in culture
# Assay type: functional, organism-based, K1
# PARTICULARS: Plasmodium falciparum, K1, 72 h
# Description: DNDI: Malaria in Vitro, 72 hour
pIC50: −log10 of the molar value.
ASSAY READOUT: pIC50

COMPOUND | READING QUALIFIER | NUMERIC RESULT
c1ccc(-c2ccc(C(c3ccccc3)n3ccnc3)cc2)cc1 (stereo not drawn) [BIFONAZOLE] | = | 5.50
CN1CCC(=C2c3ccccc3CC(=O)c3sccc32)CC1 [KETOTIFEN] | = | 6.12
C[C@H]1c2cccc(O)c2C(O)=C2C(=O)[C@]3(O)C(=O)/C(=C(/N)O)C(=O)[C@@H](N(C)C)[C@@H]3[C@@H](O)[C@@H]21 | = | 5.35
Clc1ccc(C(OCCN2CCCCC2)c2ccccc2)cc1 (stereo not drawn) [CLOPERASTINE] | = | 6.06
NC(=O)c1cccnc1 [NIACINAMIDE] | < | 4.39
CN(C)CCCN1c2ccccc2Sc2ccc(C(F)(F)F)cc21 [TRIFLUPROMAZINE] | = | 5.57
Fc1ccc([C@@H]2CCNC[C@H]2COc2ccc3c(c2)OCO3)cc1 [PAROXETINE] | = | 5.03
Nc1ccc(S(=O)(=O)Nc2ncccn2)cc1 [SULFADIAZINE] | = | 5.84
CN1CC(=O)N2[C@H](c3ccc4c(c3)OCO4)c3[nH]c4ccccc4c3C[C@@H]2C1=O | < | 4.89
Cc1c(O)cccc1C(=O)N[C@@H](CSc1ccccc1)[C@H](O)CN1C[C@H]2CCCC[C@H]2C[C@H]1C(=O)NC(C)(C)C | = | 4.98
CN1CCN(CCCN2c3ccccc3Sc3ccc(C(F)(F)F)cc32)CC1 [TRIFLUOPERAZINE] | = | 5.83
Clc1ccc(C(Cn2ccnc2)OCc2ccsc2Cl)c(Cl)c1 (stereo not drawn) [TIOCONAZOLE] | = | 5.97
O=C(O)COCCN1CCN(C(c2ccccc2)c2ccc(Cl)cc2)CC1 (stereo not drawn) [CETIRIZINE] | = | 4.70
Nc1nc2c(ncn2COC(CO)CO)c(=O)[nH]1 [GANCICLOVIR] | < | 3.71
Cc1c(C)c2c(c(C)c1O)CCC(C)(COc1ccc(CC3SC(=O)NC3=O)cc1)O2 (stereo not drawn) [TROGLITAZONE] | = | 5.14
CO[C@H]1/C=C/O[C@@]2(C)Oc3c(C)c(O)c4c(c3C2=O)C2=NC3(CCN(CC(C)C)CC3)NC2=C(NC(=O)/C(C)=C\C=C\[C@H](C)[C@H](O)[C@@H](C)[C@@H](O)[C@H](C)[C@H](OC(C)=O)[C@H]1C)C4=O | = | 5.80
CO[C@H]1/C=C/O[C@@]2(C)Oc3c(C)c(O)c4c(O)c(c(/C=N/N5CCN(C)CC5)c(O)c4c3C2=O)NC(=O)/C(C)=C\C=C\[C@H](C)[C@H](O)[C@@H](C)[C@@H](O)[C@H](C)[C@H](OC(C)=O)[C@H]1C | = | 7.00
O=C(Nc1ccc([N+](=O)[O-])cc1Cl)c1cc(Cl)ccc1O [NICLOSAMIDE] | = | 5.94
COC(=O)N[C@H](C(=O)N[C@@H](Cc1ccccc1)[C@@H](O)CN(Cc1ccc(-c2ccccn2)cc1)NC(=O)[C@@H](NC(=O)OC)C(C)(C)C)C(C)(C)C [ATAZANAVIR] | = | 5.10
COc1ccc(Cl)cc1C(=O)NCCc1ccc(S(=O)(=O)NC(=O)NC2CCCCC2)cc1 [GLYBURIDE] | = | 4.42
Cc1oncc1C(=O)Nc1ccc(C(F)(F)F)cc1 [LEFLUNOMIDE] | < | 4.73
Nc1nc(N)c2nc(-c3ccccc3)c(N)nc2n1 | = | 4.76
CCC[C@@H]1C[C@@H](C(=O)N[C@H]([C@@H]2O[C@H](SC)[C@H](O)[C@@H](O)[C@H]2O)[C@@H](C)O)N(C)C1 | = | 5.15

---

# Tested on: Plasmodium falciparum
# METHOD SUMMARY: microbe, parasite or virus in culture
# Assay type: functional, organism-based, K1
# PARTICULARS: Plasmodium falciparum, K1, 72 h

MOL | TARGET UNDER TEST | IC50
CC(=O)[C@H]1CC[C@@H]2[C@@H]3CC[C@@H]4C[C@](C)(O)CC[C@]4(C)[C@H]3CC[C@@]12C | Plasmodium falciparum | > 15 µM
CC(=O)OCC(CCn1cnc2cnc(N)nc21)COC(C)=O | Plasmodium falciparum | > 156 µM
C[C@@H](c1ncncc1F)[C@](O)(Cn1cncn1)c1ccc(F)cc1F | Plasmodium falciparum | > 143 µM

Values were extracted from ChEMBL document CHEMBL3392926.
